# Tested on: PPARa:RXRa (NR concentration 270 nM, RXRa partner concentration 90 nM)
# EXPERIMENT DESCRIPTION: PBM binding z-score (relative to random genomic background probes); higher = stronger binding; sequences stand for … in GC…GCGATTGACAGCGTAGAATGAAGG
MEASURED PARAMETER: PBM binding z-score

{"columns": ["ENTRY SEQUENCE", "OBS VALUE"],
 "data": [
  ["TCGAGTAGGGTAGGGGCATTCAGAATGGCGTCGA", 0.956],
  ["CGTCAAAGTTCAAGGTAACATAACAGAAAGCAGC", 4.67],
  ["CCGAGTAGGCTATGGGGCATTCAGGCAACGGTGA", 0.341],
  ["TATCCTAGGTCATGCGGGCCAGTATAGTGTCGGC", 4.14]
]}

Challenge: Answer with the recorded PBM binding z-score for the sequence listed here: CGTCAAAGTTCAAGGTAACTTAACAGAAAGCAGC
Response given: 4.5

Challenge: Answer with the recorded PBM binding z-score for the sequence listed here: AGAATGACGTTAAGATCAGGGAAACAGAATACAT
Response given: -0.223

Challenge: Answer with the recorded PBM binding z-score for the sequence listed here: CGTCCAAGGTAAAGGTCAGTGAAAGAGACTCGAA
Response given: 4.54

Challenge: Answer with the recorded PBM binding z-score for the sequence listed here: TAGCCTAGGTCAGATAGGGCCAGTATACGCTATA
Response given: 1.59

====

sequences and their reported PBM binding z-score
# Tested on: PPARg:RXRa 90nM:30nM, anti-RXR (NR concentration 90 nM, RXRa partner concentration 30 nM)
# EXPERIMENT DESCRIPTION: PBM binding z-score (relative to random genomic background probes); higher = stronger binding; sequences stand for … in GC…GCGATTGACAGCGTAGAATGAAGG
In your answer, state the number alone without any accompanying words.

{"columns": ["ENTRY SEQUENCE", "OBS VALUE"],
 "data": [
  ["ATCTCTAGGTAAGACTTAGTTCAGTGAAGAACGC", 0.438]
]}

Challenge: Answer with the recorded PBM binding z-score for the sequence listed here: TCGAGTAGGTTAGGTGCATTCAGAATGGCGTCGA
Response given: 0.505

Challenge: Answer with the recorded PBM binding z-score for the sequence listed here: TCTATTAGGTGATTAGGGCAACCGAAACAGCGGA
Response given: 2.97

Challenge: Answer with the recorded PBM binding z-score for the sequence listed here: ACTCGGAGGACAAAGGTCCGAGCTACGCCAGTGA
Response given: 2.38

Challenge: Answer with the recorded PBM binding z-score for the sequence listed here: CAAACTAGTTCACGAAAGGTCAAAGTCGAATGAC
Response given: 4.32

====

sequences and their reported PBM binding z-score
# System: VDR:RXRa (NR concentration 270 nM, RXRa partner concentration 90 nM)
# EXPERIMENT DESCRIPTION: PBM binding z-score (relative to random genomic background probes); higher = stronger binding; sequences stand for … in GC…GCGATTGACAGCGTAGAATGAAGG
In your answer, state the number alone without any accompanying words.

Here's what some known entries look like.
{"columns": ["ENTRY SEQUENCE", "TESTED ON", "OBS VALUE"],
 "data": [
  ["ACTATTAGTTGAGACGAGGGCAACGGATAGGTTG", "VDR:RXRa (NR concentration 270 nM, RXRa partner concentration 90 nM)", 0.66],
  ["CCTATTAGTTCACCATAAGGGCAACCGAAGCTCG", "VDR:RXRa (NR concentration 270 nM, RXRa partner concentration 90 nM)", 2.6],
  ["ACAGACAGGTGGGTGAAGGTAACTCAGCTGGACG", "VDR:RXRa (NR concentration 270 nM, RXRa partner concentration 90 nM)", -0.163],
  ["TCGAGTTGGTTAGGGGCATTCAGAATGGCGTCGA", "VDR:RXRa (NR concentration 270 nM, RXRa partner concentration 90 nM)", 1.84],
  ["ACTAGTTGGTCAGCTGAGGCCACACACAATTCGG", "VDR:RXRa (NR concentration 270 nM, RXRa partner concentration 90 nM)", 0.307]
]}

Now turn to the next sequence.
Challenge: Answer with the recorded PBM binding z-score for the sequence listed here: TTACCAAGGTGACGGTCGTTGATCCCTCTGTAGA
Response given: 0.0426
